- Tested on: MALME-3M melanoma
- assayInfo: NCI-60 one-dose screen, 48 h (100 = growth as untreated, 0 = no growth, -100 = all killed)
- condition: 10 µM unless noted
This is part of a sample that, as a whole, favours compounds with a hit. Of some 83,000 tested, about 20% had one in any assay.
Is growth at least 40%? Then y. If not, n.

| molecule | className |
| --- | --- |
| CC1OC(n2c3ccccc3c3c4c(c5c6ccccc6[nH]c5c32)C(=O)N(CCN2CCCC2)C4=O)CC(O)C1O (stereo not given) | y |
| Cc1ccc(C2=Nc3c(N)ncnc3NC(c3cccc(Nc4ccnc5cc(C(F)(F)F)ccc45)c3)C2)cc1 (stereo not given) | n |
| O=C1c2ccccc2-c2c1c1c(=O)[nH]c3ccccc3c1n2Cc1ccccc1 | n |
| COc1ccc(-c2ccc(-c3ccc(C(=N)N)cc3)s2)cc1Cl | y |
| COc1ccc(NC(=O)c2sc3nc(C)c(C(=O)/C=C/c4ccccc4)cc3c2N)cc1 | y |
| Cc1ccc(/C=C2\COc3ccc(O)cc3C2=O)cc1 | y |
| Oc1c(I)cc(I)cc1CNCc1ccccn1 | y |
| CCn1cc(C(=O)O)c(=O)c2cc(F)c(N3CCN(CC(=O)Nc4ccc(S(=O)(=O)Nc5nccc(C)n5)cc4)C(C)C3)c(F)c21 (stereo not given) | y |
| O=S(=O)(Nc1ccc(F)cc1F)c1ccc(-c2cnc(C3CC3)o2)cc1 | n |
| Clc1ccc2c(NC3CCC(N4CCOCC4)CC3)ccnc2c1 (stereo not given) | y |
| COc1ccc(NC2=C(I)C(=O)c3ncccc3C2=O)cc1 | n |
| Cn1c(=O)cc2c3c(c(NCCCO)ccc31)C(=O)c1ccccc1-2 | n |
| CCC(C(=O)[C@@H](C)[C@@H](O)[C@H](C)[C@@H]1O[C@@H]([C@@H](CC)C(=O)ONC(=O)c2ccccc2)CC[C@@H]1C)[C@H]1O[C@]2(C=CC(=O)[C@]3(CC[C@@](C)([C@H]4CC[C@](O)(CC)[C@H](C)O4)O3)O2)[C@H](C)C[C@@H]1C (stereo not given in full) | n |
| C#CCOc1cccc(Nc2ncnc3cc(NC(=O)C=C)ccc23)c1 | n |
| Cc1ccc(C[P+](c2ccccc2)(c2ccccc2)c2ccccc2)cc1 | n |
| CN(C)Cc1ccc(O)c(C(=O)O)c1 | y |
| CCCNc1nc2ccccc2c2c1S(=O)(=O)c1ccc(Cl)cc1C2=O | n |
| O=C(/C=C/c1ccco1)Nc1ncc(Cc2cccc(C(F)(F)F)c2)s1 | n |
| COc1ccc(C/C(C)=C(\c2ccc(Cl)cc2)c2ccc(OCCN3CCCCC3)cc2)cc1 | y |
| COc1ccc(/C=C/C(=O)c2cccc(OCCCCOc3cccc(C(=O)/C=C/c4ccc(OC)c(OC)c4)c3)c2)cc1OC | y |
| C=CCOC(=O)Nc1cccn([C@H](Cc2ccccc2)C(=O)NCCC(C)C)c1=O | y |
| CCOc1ccccc1Cn1ccnc1CCc1c(Cl)c(O)cc(O)c1C(=O)OC | y |
| CC(C)COc1nc2c(c(=O)n(C)c(=O)n2C)n1C | y |
| COC12C=C/C(=C(/C(=O)OCc3ccncn3)C(=O)CCCCCCCCC3(OC)C=C/C(=C(/C(=O)OCc4ccncn4)C(=O)CCCCCCCC1)O3)O2 | n |
| C=C(C)[C@@H]1CC[C@]2(C(=O)O)CC[C@]3(C)[C@H](CC[C@@H]4[C@@]5(C)CCC(NC(=O)c6cccc(OC(C)=O)c6OC(C)=O)C(C)(C)[C@@H]5CC[C@]43C)[C@@H]12 (stereo not given in full) | n |
| COc1ccc(C(=O)Nc2cccc(-c3cc(=O)c4c(OC)c(OC)c(OC)cc4o3)c2)cc1 | y |
| C=C(C)[C@@H]1CC[C@]2(C(=O)N3CCOCC3)CC[C@]3(C)[C@H](CC[C@@H]4[C@@]5(C)C/C(=C/c6ccncc6)C(=O)C(C)(C)[C@@H]5CC[C@]43C)[C@@H]12 | y |
| NC(N)=NCCCCCNc1noc(Cc2c[nH]c3cc(Br)ccc23)n1 | y |
| Cc1ccc(C(=O)c2ccc(CC(=O)N/N=C/c3ccccc3O)n2C)cc1 | y |
| NNc1nc(-c2cccnc2)nc2c1sc(=S)n2-c1ccccc1 | y |
| N#CC(C#N)N=Nc1ccc(Br)cc1 | n |
| NC(=O)c1ccc(-c2c3ccccc3cc3c2ccc2ccccc23)cc1 | y |
| C#CCNC(=O)[C@H](CC)[C@H]1CC[C@H](C)[C@H]([C@@H](C)[C@H](O)[C@H](C)C(=O)[C@H](CC)C2O[C@]3(C=CC(=O)[C@]4(CC[C@@](C)([C@H]5CC[C@](O)(CC)[C@H](C)O5)O4)O3)[C@H](C)C[C@@H]2C)O1 (stereo not given in full) | y |

* * *

- Test system: SNB-75 CNS
- assayInfo: NCI-60 one-dose screen, 48 h (100 = growth as untreated, 0 = no growth, -100 = all killed)
- condition: 10 µM unless noted
This is part of a sample that, as a whole, favours compounds with a hit. Of some 83,000 tested, about 20% had one in any assay.
Lab note: anything with growth below 60% is marked YES; values at 60% or higher are marked NO.

| molecule | className |
| --- | --- |
| O=C(/C=C/c1cccc(Cl)c1)c1ccc(Nc2nc(Nc3ccc(F)cc3)nc(Nc3ccc(Cl)cc3)n2)cc1 | NO |
| COc1ccc(OC)c(-c2nc(SCC(=O)c3ccc(C#N)cc3)[nH]c(=O)c2C#N)c1 | NO |
| COc1ccc(-c2noc(C(=O)O)c2-c2cc(OC)c(OC)c(OC)c2)cc1 | YES |
| Cc1nc2sc(C(=O)Nc3ccc(Br)cc3)c(N)c2cc1C(O)c1ccccc1 (stereo not given) | NO |
| Nc1nc(-c2ccc(Cl)cc2)nc2c1sc(=S)n2-c1ccccc1 | YES |

* * *

- System: T-47D breast
- assayInfo: NCI-60 one-dose screen, 48 h
- condition: 10 µM unless noted
About 83,000 compounds went through this panel and 20% of them were active in at least one assay; those are over-represented in the sample as a whole. Calls of active or inactive are those of the source. How the source made its calls: active means growth percent below 10; inactive means the rest.
Classes used: active, inactive

| molecule | className |
| --- | --- |
| COc1ccc(C2=C(Nc3ccc(C(=O)Nc4ccccc4)cc3)C(=O)N(C)C2=O)cc1 | inactive |
| Nc1nc(-c2ccc(Cl)cc2)nc2c1sc(=S)n2-c1ccccc1 | inactive |
| CN1C(=O)/C(=C\c2nc([P+](c3ccccc3)(c3ccccc3)c3ccccc3)c(N3CCOCC3)o2)SC1=S | inactive |
| COC(=O)c1nc(-c2ccc(C)cc2)oc1S(=O)(=O)c1cccc(OC)c1 | inactive |
| CCN(CC)c1ccc(\C=N/N=C(N)/C(N)=N\N=C/c2ccc(N(CC)CC)cc2)cc1 | inactive |
| Cn1cc(-c2csc(-c3c[nH]c4ccc(Br)cc34)n2)c2ccnc(Cl)c21 | inactive |
| O=C(CN1CCCCC1)Nc1nc(-c2cc3ccccc3oc2=O)cs1 | inactive |
| CCCc1c(OC(=O)c2ccccc2)nc2[nH]c(=O)sc2c1C | inactive |
| c1ccc2cc(C[n+]3ccn(CCCCCCCCCCn4cc[n+](Cc5ccc6ccccc6c5)c4)c3)ccc2c1 | active |
| O=S(=O)(NCCNc1nccc(-c2c(-c3ccc(F)c(O)c3)nc3sccn23)n1)c1ccc(O)cc1 | active |
| COCCOc1cc2ncnc(N3CCN(c4ncc(S(=O)(=O)N5CCCCC5)cn4)CC3)c2cc1OCCOC | inactive |
| CN(C)c1ccc(-c2c(C#N)c(N)nn2C(=O)c2ccc(NC(=O)c3ccccn3)cc2)cc1 | inactive |
| O=C(Nc1cccc2ccccc12)NC1CC1 | inactive |
| CCN1C(=S)N(c2ccccc2)C2NC(=S)N(/N=C/C=C/c3ccccc3OC)C21 (centres undefined) | inactive |
| O=C(COc1ccc(-c2nc3cc(Cl)c(Cl)cc3[nH]2)cc1)N=Nc1c(O)[nH]c2ccc(Cl)cc12 | inactive |
| COC(=O)CC[C@H](C)[C@H]1CC[C@H]2[C@@H]3CC[C@@H]4CC5(CC[C@]4(C)[C@H]3CC(=O)[C@]12C)Nc1ccccc1NC5=NC(C)(C)C (some centres undefined) | inactive |
| COc1cc(C2CC(c3ccc(Nc4nc(Nc5ccc(Cl)cc5)nc(Nc5ccc(Cl)cc5)n4)cc3)=NN2C(C)=O)cc(OC)c1OC (centres undefined) | inactive |
| C#CCNC(=O)[C@H](CC)[C@H]1CC[C@H](C)[C@H]([C@@H](C)[C@H](O)[C@H](C)C(=O)[C@H](CC)C2O[C@]3(C=CC(=O)[C@]4(CC[C@@](C)([C@H]5CC[C@](O)(CC)[C@H](C)O5)O4)O3)[C@H](C)C[C@@H]2C)O1 (some centres undefined) | inactive |
| Cc1cccc(/C=C2\CN(C(=O)OC(C)(C)C)C/C(=C\c3cccc(C)c3)C2=O)c1 | inactive |
| NC(=O)C(=O)c1ccccc1NC=O | inactive |
| COc1ccccc1N1CCCCC1 | inactive |
| O=C(CSc1nc2ccc([N+](=O)[O-])cc2[nH]1)Nc1ccc([N+](=O)[O-])cc1 | active |
| Cc1cc(N2CCN(CC(=O)Nc3ccc4c(ccn4C)c3)CC2)nc(N2CCCCCC2)n1 | inactive |
| CCOC(=O)c1c(NC(=O)c2ccc(Cl)cc2)sc2c(CN(C)C)c(O)ccc12 | inactive |
| O=C1/C(=C/c2ccc([N+](=O)[O-])cc2)COc2ccc(O)cc21 | inactive |
| CCOC(=O)[C@@H]1CSC(CC)=C(C(=O)O)N1 | inactive |
| Cc1ccccc1/C=C/C(=O)c1cccc(OCCCOc2cccc(C(=O)/C=C/c3ccccc3C)c2)c1 | inactive |
| Cc1cc(N2CCCCC2)cc(C)c1-c1csc(NC(=O)c2ccncc2)n1 | inactive |
| N#Cc1nc(-c2ccccc2)oc1S(=O)(=O)N1CCN(c2ccccc2)CC1 | inactive |
| O=C(Cn1cc(CSc2nc3ccccc3o2)nn1)Nc1ccc(F)cc1F | inactive |
| Cc1[nH]c(=O)[nH]c(=O)c1Br | inactive |
| Cc1cc(C(=O)O)c(C)n1-c1cccc(C(=O)O)c1 | inactive |
| Clc1ccc2c(c1)C(c1c[nH]c3ccccc13)(c1c[nH]c3ccccc13)CCO2 | active |
| CCCCCCCCCCCCCCCCCCOc1ccccc1CC(=O)OCC[N+](C)(C)C | inactive |
| CSc1nc2ncc([N+](=O)[O-])c(=O)n2[nH]1 | inactive |
| O=C(/C=C/c1ccco1)Nc1ncc(Cc2cccc(C(F)(F)F)c2)s1 | inactive |
| O=C(NCc1ccc(Cl)cc1Cl)C1CCC(=O)N1c1cccs1 (centres undefined) | inactive |
| COc1ccc(/C=C(\C#N)n2nnc3ccc(Cl)cc32)cc1 | inactive |
| CN1C(=O)/C(=C\c2c(Cl)cccc2Cl)c2ccccc21 | inactive |
